- Test system: MDA-MB-231 (TNBC) breast cancer cells
- PROTOCOL_DESCRIPTION: MTT cytotoxicity assay, MDA-MB-231
- Type: cell-based
- TEST_PARAMETERS: Homo sapiens, Fig 2C summary, MTT 48 h, read-out: IC50 ± SEM MDA-MB-231
QUANTITY_NAME: IC50 (µM)
Number in µM, nothing else.

Q: Read off the recorded IC50 for `CS(=O)(=O)c1ccc(-c2cnc3ccc(-c4cccc(S(C)(=O)=O)c4)nn23)cc1`
A: 14.3

---

- System: FG0 human skin fibroblasts
- PROTOCOL_DESCRIPTION: MTT cytotoxicity assay, FG0
- Format: cell-based
- TEST_PARAMETERS: Skin fibroblast, MTT, 48 h, exact IC50 not reached, predicted, read-out: IC50 FG0
pIC50: −log10 of the molar value.
QUANTITY_NAME: pIC50

Q: Give the observed pIC50 of `CS(=O)(=O)c1ccc(-c2cnc3ccc(-c4cccc(S(C)(=O)=O)c4)nn23)cc1` for FG0 human skin fibroblasts.
A: < 5.00

---

- STUDY_TARGET: PIK3C2G (Homo sapiens)
- Sequence (O75747 1-1486): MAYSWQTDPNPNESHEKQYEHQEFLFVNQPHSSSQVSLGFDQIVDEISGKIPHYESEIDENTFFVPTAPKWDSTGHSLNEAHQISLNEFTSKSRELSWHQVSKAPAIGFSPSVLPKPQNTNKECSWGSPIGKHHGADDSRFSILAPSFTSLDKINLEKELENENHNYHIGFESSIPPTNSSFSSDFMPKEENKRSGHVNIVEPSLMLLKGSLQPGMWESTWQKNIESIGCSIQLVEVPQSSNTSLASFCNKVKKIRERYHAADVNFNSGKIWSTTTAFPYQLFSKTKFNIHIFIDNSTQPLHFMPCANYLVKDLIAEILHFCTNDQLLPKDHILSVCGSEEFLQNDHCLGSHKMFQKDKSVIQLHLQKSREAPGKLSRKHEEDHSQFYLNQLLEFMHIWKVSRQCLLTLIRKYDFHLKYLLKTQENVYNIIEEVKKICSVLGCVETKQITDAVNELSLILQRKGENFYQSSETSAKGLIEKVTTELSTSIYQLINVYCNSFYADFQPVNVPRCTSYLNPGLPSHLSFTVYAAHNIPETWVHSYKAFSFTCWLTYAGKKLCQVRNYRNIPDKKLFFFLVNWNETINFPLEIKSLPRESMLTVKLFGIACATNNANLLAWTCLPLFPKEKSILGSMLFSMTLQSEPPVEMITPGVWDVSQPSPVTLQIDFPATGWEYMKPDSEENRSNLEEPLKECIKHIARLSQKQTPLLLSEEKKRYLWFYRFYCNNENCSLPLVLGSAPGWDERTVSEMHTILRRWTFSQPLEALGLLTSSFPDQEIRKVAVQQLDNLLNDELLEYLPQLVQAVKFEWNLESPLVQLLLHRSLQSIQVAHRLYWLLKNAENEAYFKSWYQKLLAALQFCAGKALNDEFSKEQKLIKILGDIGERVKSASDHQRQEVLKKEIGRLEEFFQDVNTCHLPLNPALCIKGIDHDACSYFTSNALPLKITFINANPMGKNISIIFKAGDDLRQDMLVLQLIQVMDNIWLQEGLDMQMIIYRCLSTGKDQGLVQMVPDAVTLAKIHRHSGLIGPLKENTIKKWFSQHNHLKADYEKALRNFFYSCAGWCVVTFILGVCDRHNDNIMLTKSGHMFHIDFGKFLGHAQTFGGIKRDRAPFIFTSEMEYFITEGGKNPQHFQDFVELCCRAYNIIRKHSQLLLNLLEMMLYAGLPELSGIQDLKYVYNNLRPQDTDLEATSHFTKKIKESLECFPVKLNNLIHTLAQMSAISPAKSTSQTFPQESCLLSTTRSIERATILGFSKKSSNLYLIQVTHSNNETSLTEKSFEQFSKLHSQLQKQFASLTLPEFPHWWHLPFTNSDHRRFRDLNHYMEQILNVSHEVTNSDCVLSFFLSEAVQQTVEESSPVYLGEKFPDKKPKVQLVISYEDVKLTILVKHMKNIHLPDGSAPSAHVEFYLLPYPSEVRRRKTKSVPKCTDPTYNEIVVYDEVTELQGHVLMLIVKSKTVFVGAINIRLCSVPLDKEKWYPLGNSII
QUANTITY_NAME: pIC50
Please treat pIC50 as minus the base-10 logarithm of the molar concentration.

Q: Item `CS(=O)(=O)c1ccc(-c2cnc3ccc(-c4cccc(S(C)(=O)=O)c4)nn23)cc1` : provide pIC50
A: 7.07

---

- Test system: BT474 (HER2+) breast cancer cells
- PROTOCOL_DESCRIPTION: MTT cytotoxicity assay, BT474
- Format: cell-based
- TEST_PARAMETERS: Homo sapiens, BT-474; Fig 2C summary, MTT 48 h; read-out: IC50 ± SEM BT474
- Description: Human estrogen-receptor positive (ER+) breast adenocarcinoma cell lines, MCF7 and T47D, were maintained in Roswell Park Memorial Institute-1640 medium (Sigma Aldrich, Missouri, USA) and the human epidermal growth factor receptor 2 positive (HER2+) BT474, and triple negative (TNBC) MDA-MB-231 and MDA-MB-468 cells were maintained in Dulbecco's Modified Eagle's Medium (DMEM) (Sigma Aldrich, Missouri, USA). […]
QUANTITY_NAME: IC50 (µM)
Numbers only; they are read as µM.

Q: Give IC50 for the following molecule: CS(=O)(=O)c1ccc(-c2cnc3ccc(-c4cccc(S(C)(=O)=O)c4)nn23)cc1 [MMV652103]
A: 7.3

---

- System: MCF7 (breast cancer cell line)
- PROTOCOL_DESCRIPTION: MTT cytotoxicity assay, MCF7
- Format: cell-based, human
- TEST_PARAMETERS: Homo sapiens, MCF7; MTT, 48 h; read-out: Cytotoxicity assays (MTT) IC50 MCF7
QUANTITY_NAME: pIC50
Expect pIC50 as a plain number equal to -log10 of the molar concentration.

Q: Kindly indicate its recorded pIC50. Item: `CS(=O)(=O)c1ccc(-c2cnc3ccc(-c4cccc(S(C)(=O)=O)c4)nn23)cc1`
A: 5.66

---

- Tested on: MDA-MB-231 (TNBC) breast cancer cells
- PROTOCOL_DESCRIPTION: MTT cytotoxicity assay, MDA-MB-231
- Assay type: cell-based
- TEST_PARAMETERS: Homo sapiens, MTT, 48 h, read-out: IC50 MDA-MB-231
QUANTITY_NAME: IC50 (µM)
Expressed in µM, but write only the number.

Q: Please report the measured IC50 for `CS(=O)(=O)c1ccc(-c2cnc3ccc(-c4cccc(S(C)(=O)=O)c4)nn23)cc1`
A: 14.3

---

- STUDY_TARGET: PI4KB (Homo sapiens)
- Sequence (Q9UBF8 whole entry): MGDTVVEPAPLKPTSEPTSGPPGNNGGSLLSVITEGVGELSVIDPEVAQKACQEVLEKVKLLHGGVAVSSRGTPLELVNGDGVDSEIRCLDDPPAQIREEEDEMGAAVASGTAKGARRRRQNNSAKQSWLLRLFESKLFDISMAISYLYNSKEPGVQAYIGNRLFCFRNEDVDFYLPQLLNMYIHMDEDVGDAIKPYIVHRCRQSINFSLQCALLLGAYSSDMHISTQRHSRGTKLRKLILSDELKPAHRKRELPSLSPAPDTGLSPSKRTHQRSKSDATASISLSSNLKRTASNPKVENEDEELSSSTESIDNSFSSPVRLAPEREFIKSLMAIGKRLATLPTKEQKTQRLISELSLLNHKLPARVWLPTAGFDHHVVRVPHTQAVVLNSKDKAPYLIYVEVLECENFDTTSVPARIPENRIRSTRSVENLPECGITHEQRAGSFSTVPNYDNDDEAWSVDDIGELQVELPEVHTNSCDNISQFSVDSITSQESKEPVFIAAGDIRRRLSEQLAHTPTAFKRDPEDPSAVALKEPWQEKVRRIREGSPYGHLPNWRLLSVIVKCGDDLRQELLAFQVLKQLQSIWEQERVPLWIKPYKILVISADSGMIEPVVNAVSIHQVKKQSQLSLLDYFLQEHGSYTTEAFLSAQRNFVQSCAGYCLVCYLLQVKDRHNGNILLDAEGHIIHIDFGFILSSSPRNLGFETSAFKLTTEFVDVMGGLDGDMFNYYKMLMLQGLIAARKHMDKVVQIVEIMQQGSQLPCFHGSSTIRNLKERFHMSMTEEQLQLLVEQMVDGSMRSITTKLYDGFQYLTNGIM
QUANTITY_NAME: pIC50
To interpret pIC50, take it as minus log10 of a concentration measured in moles per litre.

Q: Give PI4KB (Homo sapiens) pIC50 for the following molecule: CS(=O)(=O)c1ccc(-c2cnc3ccc(-c4cccc(S(C)(=O)=O)c4)nn23)cc1 [MMV652103]
A: 5.77
